Tested on: 556581-035-R-J1-PDC complex spheroid viability
assay.remarks: Anticancer human tumor 556581-035-R-J1-PDC patient-derived ovarian carcinoma cell line growth inhibition
conditions.used: second compound 10 µM; first compound 0.001 µM; active compounds read low
Below, each entry is listed with its recorded viability, T/C.
property.name: viability, T/C (%)

| compound | numeric.readout |
| --- | --- |
| CC(C)CC(NC(=O)CNC(=O)c1cc(Cl)ccc1Cl)B1OC(=O)CC(CC(=O)O)(C(=O)O)O1 (stereo not drawn) + NC1CC1c1ccc(-c2cccc(O)c2)cc1 | 74.8 |
| Cn1ncnc1C1c2n[nH]c(=O)c3cc(F)cc(c23)NC1c1ccc(F)cc1 (stereo not drawn) + NC1CC1c1ccc(-c2cccc(O)c2)cc1 | 83.2 |
| CC(C)CC(NC(=O)C(Cc1ccccc1)NC(=O)c1cnccn1)B(O)O (stereo not drawn) + NC1CC1c1ccc(-c2cccc(O)c2)cc1 | 0.27 |
| CC[C@@]1(O)C(=O)OCc2c1cc1n(c2=O)Cc2cc3c(CN(C)C)c(O)ccc3nc2-1 + NC1CCC(NC2CC2c2ccccc2)CC1 | 67.1 |
| CC(C)CC(NC(=O)CNC(=O)c1cc(Cl)ccc1Cl)B1OC(=O)CC(CC(=O)O)(C(=O)O)O1 (stereo not drawn) + NC1CCC(NC2CC2c2ccccc2)CC1 | 90.1 |
| CC(C)CC(NC(=O)C(Cc1ccccc1)NC(=O)c1cnccn1)B(O)O (stereo not drawn) + NC1CCC(NC2CC2c2ccccc2)CC1 | 0.22 |
| CC[C@@]1(O)C(=O)OCc2c1cc1n(c2=O)Cc2cc3c(CN(C)C)c(O)ccc3nc2-1 + NC1CC1c1ccc(-c2cccc(O)c2)cc1 | 79.8 |
| Cn1ncnc1C1c2n[nH]c(=O)c3cc(F)cc(c23)NC1c1ccc(F)cc1 (stereo not drawn) + NC1CCC(NC2CC2c2ccccc2)CC1 | 77.8 |

----------
Below, each entry is listed with its recorded viability, T/C.
System: 556581-035-R-J1-PDC complex spheroid viability
assay.remarks: Anticancer human tumor 556581-035-R-J1-PDC cell line growth inhibition;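 further: spheroids exposed to agents for seven days; 100% = DMSO vehicle control wells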
conditions.used: second compound 1 µM; first compound 0.01 µM; active compounds read low

| compound | viability, T/C (%) |
| --- | --- |
| Cn1ncnc1C1c2n[nH]c(=O)c3cc(F)cc(c23)NC1c1ccc(F)cc1 (configuration not stated) + NC1CC1c1ccc(-c2cccc(O)c2)cc1 | 81.6 |
| Nc1ncn(C2CC(O)C(CO)O2)c(=O)n1 (configuration not stated) + NC1CCC(NC2CC2c2ccccc2)CC1 | 84.3 |
| CC(C)CC(NC(=O)C(Cc1ccccc1)NC(=O)c1cnccn1)B(O)O (configuration not stated) + NC1CCC(NC2CC2c2ccccc2)CC1 | 0.17 |
| CC1COCCN1c1cc(-c2ccnn2C)c2ccnc(-c3ccn[nH]3)c2n1 (configuration not stated) + NC1CC1c1ccc(-c2cccc(O)c2)cc1 | 47.1 |
| Cn1ncnc1C1c2n[nH]c(=O)c3cc(F)cc(c23)NC1c1ccc(F)cc1 (configuration not stated) + NC1CCC(NC2CC2c2ccccc2)CC1 | 101 |
| COc1cc(Nc2ncc3c(n2)-c2ccc(Cl)cc2C(c2c(F)cccc2OC)=NC3)ccc1C(=O)O + NC1CCC(NC2CC2c2ccccc2)CC1 | 60.6 |
| CC(C)CC(NC(=O)CNC(=O)c1cc(Cl)ccc1Cl)B1OC(=O)CC(CC(=O)O)(C(=O)O)O1 (configuration not stated) + NC1CCC(NC2CC2c2ccccc2)CC1 | 4.47 |

----------
System: 556581-035-R-J1-PDC complex spheroid viability
assay.remarks: Anticancer human tumor 556581-035-R-J1-PDC cell line growth inhibition;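 further: spheroids exposed to agents for seven days; 100% = DMSO vehicle control wells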
conditions.used: second compound 1 µM; first compound 1 µM; active compounds read low
Lab note: anything with viability, T/C below 50% is marked Condition met; values at 50% or higher are marked Condition not met.

| compound | experimental.target | category |
| --- | --- | --- |
| COc1ccc([C@@H](O)c2cc(-c3ncnc4cc(N5CCOCC5)ccc34)c(F)cc2Cl)nn1 + NC1CC1c1ccc(-c2cccc(O)c2)cc1 | 556581-035-R-J1-PDC complex spheroid viability | Condition not met |
| CC1COCCN1c1cc(-c2ccnn2C)c2ccnc(-c3ccn[nH]3)c2n1 (configuration not stated) + NC1CCC(NC2CC2c2ccccc2)CC1 | 556581-035-R-J1-PDC complex spheroid viability | Condition met |
| COc1cc(Nc2ncc3c(n2)-c2ccc(Cl)cc2C(c2c(F)cccc2OC)=NC3)ccc1C(=O)O + NC1CCC(NC2CC2c2ccccc2)CC1 | 556581-035-R-J1-PDC complex spheroid viability | Condition met |
| CC(C)c1c(-c2ccccc2)nc2c(C#N)c[nH]n2c1=O + NC1CC1c1ccc(-c2cccc(O)c2)cc1 | 556581-035-R-J1-PDC complex spheroid viability | Condition not met |
| CC(C)c1c(-c2ccccc2)nc2c(C#N)c[nH]n2c1=O + NC1CCC(NC2CC2c2ccccc2)CC1 | 556581-035-R-J1-PDC complex spheroid viability | Condition not met |
| CC1(C)CCC(CN2CCN(c3ccc(C(=O)NS(=O)(=O)c4ccc(NCC5CCOCC5)c([N+](=O)[O-])c4)c(Oc4cnc5[nH]ccc5c4)c3)CC2)=C(c2ccc(Cl)cc2)C1 + NC1CC1c1ccc(-c2cccc(O)c2)cc1 | 556581-035-R-J1-PDC complex spheroid viability | Condition not met |
| COc1ccc([C@@H](O)c2cc(-c3ncnc4cc(N5CCOCC5)ccc34)c(F)cc2Cl)nn1 + NC1CCC(NC2CC2c2ccccc2)CC1 | 556581-035-R-J1-PDC complex spheroid viability | Condition met |
| Nc1ncn(C2CC(O)C(CO)O2)c(=O)n1 (configuration not stated) + NC1CC1c1ccc(-c2cccc(O)c2)cc1 | 556581-035-R-J1-PDC complex spheroid viability | Condition not met |
| O=C(c1cc(Cc2n[nH]c(=O)c3ccccc23)ccc1F)N1CCN(C(=O)C2CC2)CC1 + NC1CC1c1ccc(-c2cccc(O)c2)cc1 | 556581-035-R-J1-PDC complex spheroid viability | Condition not met |
| O=C(C=Cn1cnc(-c2cc(C(F)(F)F)cc(C(F)(F)F)c2)n1)NNc1cnccn1 + NC1CC1c1ccc(-c2cccc(O)c2)cc1 | 556581-035-R-J1-PDC complex spheroid viability | Condition met |
| CC1COCCN1c1cc(-c2ccnn2C)c2ccnc(-c3ccn[nH]3)c2n1 (configuration not stated) + NC1CC1c1ccc(-c2cccc(O)c2)cc1 | 556581-035-R-J1-PDC complex spheroid viability | Condition met |
| O=C(c1cc(Cc2n[nH]c(=O)c3ccccc23)ccc1F)N1CCN(C(=O)C2CC2)CC1 + NC1CCC(NC2CC2c2ccccc2)CC1 | 556581-035-R-J1-PDC complex spheroid viability | Condition not met |

----------
Tested on: 556581-035-R-J1-PDC complex spheroid viability
assay.remarks: Anticancer human tumor 556581-035-R-J1-PDC cell line growth inhibition;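 further: spheroids exposed to agents for seven days; 100% = DMSO vehicle control wells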
conditions.used: second compound 1 µM; first compound 10 µM; active compounds read low
Lab note: anything with viability, T/C below 50% is marked Satisfied; values at 50% or higher are marked Not satisfied.

| compound | experimental.target | category |
| --- | --- | --- |
| O=C(c1cc(Cc2n[nH]c(=O)c3ccccc23)ccc1F)N1CCN(C(=O)C2CC2)CC1 + NC1CCC(NC2CC2c2ccccc2)CC1 | 556581-035-R-J1-PDC complex spheroid viability | Not satisfied |
| COc1ccc([C@@H](O)c2cc(-c3ncnc4cc(N5CCOCC5)ccc34)c(F)cc2Cl)nn1 + NC1CCC(NC2CC2c2ccccc2)CC1 | 556581-035-R-J1-PDC complex spheroid viability | Satisfied |
| CC1(C)CCC(CN2CCN(c3ccc(C(=O)NS(=O)(=O)c4ccc(NCC5CCOCC5)c([N+](=O)[O-])c4)c(Oc4cnc5[nH]ccc5c4)c3)CC2)=C(c2ccc(Cl)cc2)C1 + NC1CC1c1ccc(-c2cccc(O)c2)cc1 | 556581-035-R-J1-PDC complex spheroid viability | Satisfied |
| CC(C)c1c(-c2ccccc2)nc2c(C#N)c[nH]n2c1=O + NC1CC1c1ccc(-c2cccc(O)c2)cc1 | 556581-035-R-J1-PDC complex spheroid viability | Not satisfied |
| CC1(C)CCC(CN2CCN(c3ccc(C(=O)NS(=O)(=O)c4ccc(NCC5CCOCC5)c([N+](=O)[O-])c4)c(Oc4cnc5[nH]ccc5c4)c3)CC2)=C(c2ccc(Cl)cc2)C1 + NC1CCC(NC2CC2c2ccccc2)CC1 | 556581-035-R-J1-PDC complex spheroid viability | Satisfied |
| CC(C)c1c(-c2ccccc2)nc2c(C#N)c[nH]n2c1=O + NC1CCC(NC2CC2c2ccccc2)CC1 | 556581-035-R-J1-PDC complex spheroid viability | Not satisfied |
| COc1ccc([C@@H](O)c2cc(-c3ncnc4cc(N5CCOCC5)ccc34)c(F)cc2Cl)nn1 + NC1CC1c1ccc(-c2cccc(O)c2)cc1 | 556581-035-R-J1-PDC complex spheroid viability | Satisfied |
| CC1COCCN1c1cc(C2(S(C)(=N)=O)CC2)nc(-c2ccnc3[nH]ccc23)n1 (stereo not given) + NC1CC1c1ccc(-c2cccc(O)c2)cc1 | 556581-035-R-J1-PDC complex spheroid viability | Satisfied |
| O=C(c1cc(Cc2n[nH]c(=O)c3ccccc23)ccc1F)N1CCN(C(=O)C2CC2)CC1 + NC1CC1c1ccc(-c2cccc(O)c2)cc1 | 556581-035-R-J1-PDC complex spheroid viability | Not satisfied |
| CC1COCCN1c1cc(C2(S(C)(=N)=O)CC2)nc(-c2ccnc3[nH]ccc23)n1 (stereo not given) + NC1CCC(NC2CC2c2ccccc2)CC1 | 556581-035-R-J1-PDC complex spheroid viability | Not satisfied |
